Just for reference, ChEMBL document CHEMBL3988442 is where these values come from.

Reported Percent Effect values for the following compounds.
# EXPERIMENTAL_SYSTEM: Polyketide synthase Pks13 (Mycobacterium tuberculosis (strain ATCC 25618 / H37Rv)) (UniProt I6X8D2)
# Sequence (I6X8D2 whole entry): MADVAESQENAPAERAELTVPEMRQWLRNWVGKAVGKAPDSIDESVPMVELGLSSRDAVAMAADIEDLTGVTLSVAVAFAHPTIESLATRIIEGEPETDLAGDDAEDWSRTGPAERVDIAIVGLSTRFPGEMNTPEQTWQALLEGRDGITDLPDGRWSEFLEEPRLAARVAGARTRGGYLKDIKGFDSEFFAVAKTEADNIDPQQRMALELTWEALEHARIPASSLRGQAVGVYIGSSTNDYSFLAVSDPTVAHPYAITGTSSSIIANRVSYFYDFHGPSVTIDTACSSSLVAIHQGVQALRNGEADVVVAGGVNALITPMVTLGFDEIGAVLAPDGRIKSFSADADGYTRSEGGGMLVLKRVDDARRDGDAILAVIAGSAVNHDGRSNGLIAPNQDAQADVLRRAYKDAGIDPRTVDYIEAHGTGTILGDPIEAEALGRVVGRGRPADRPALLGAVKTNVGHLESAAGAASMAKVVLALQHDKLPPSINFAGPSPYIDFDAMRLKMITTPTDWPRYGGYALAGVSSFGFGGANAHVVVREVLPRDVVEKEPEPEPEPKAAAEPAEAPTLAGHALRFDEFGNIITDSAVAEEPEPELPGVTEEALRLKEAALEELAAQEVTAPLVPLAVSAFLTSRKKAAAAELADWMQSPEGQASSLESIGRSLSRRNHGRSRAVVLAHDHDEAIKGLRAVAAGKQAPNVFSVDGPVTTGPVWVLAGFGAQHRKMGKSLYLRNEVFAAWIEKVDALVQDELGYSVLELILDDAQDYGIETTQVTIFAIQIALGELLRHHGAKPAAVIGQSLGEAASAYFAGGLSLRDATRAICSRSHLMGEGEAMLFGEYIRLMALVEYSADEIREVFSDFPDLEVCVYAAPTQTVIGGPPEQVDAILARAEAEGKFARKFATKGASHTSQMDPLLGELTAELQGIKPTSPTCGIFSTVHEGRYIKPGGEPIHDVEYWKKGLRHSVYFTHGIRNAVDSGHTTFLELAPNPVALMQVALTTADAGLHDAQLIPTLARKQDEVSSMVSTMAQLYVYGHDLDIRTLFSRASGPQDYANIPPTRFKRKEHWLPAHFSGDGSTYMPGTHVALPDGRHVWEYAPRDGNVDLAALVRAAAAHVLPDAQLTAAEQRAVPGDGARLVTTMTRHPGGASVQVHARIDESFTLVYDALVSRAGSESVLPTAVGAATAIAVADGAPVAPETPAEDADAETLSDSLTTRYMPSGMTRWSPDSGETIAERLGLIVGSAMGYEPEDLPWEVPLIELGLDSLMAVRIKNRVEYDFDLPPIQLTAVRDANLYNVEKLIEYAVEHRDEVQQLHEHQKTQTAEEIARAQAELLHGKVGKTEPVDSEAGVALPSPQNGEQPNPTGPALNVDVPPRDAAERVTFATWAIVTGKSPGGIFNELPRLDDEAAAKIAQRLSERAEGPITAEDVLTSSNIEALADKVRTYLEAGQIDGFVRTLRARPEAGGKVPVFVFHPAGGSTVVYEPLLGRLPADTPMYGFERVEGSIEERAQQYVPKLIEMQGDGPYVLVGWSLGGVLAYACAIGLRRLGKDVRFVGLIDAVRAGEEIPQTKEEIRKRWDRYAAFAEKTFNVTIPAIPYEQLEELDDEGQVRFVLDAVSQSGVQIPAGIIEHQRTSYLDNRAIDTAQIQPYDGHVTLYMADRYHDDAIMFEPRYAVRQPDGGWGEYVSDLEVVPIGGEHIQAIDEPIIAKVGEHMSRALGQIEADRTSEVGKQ
# EXPERIMENT_SUMMARY: Mycobacterium tuberculosis Polyketide synthase 13 Thioesterase (PKS13)
# Type: functional
# Parameters: scale not given: in the data most compounds retested in dose-response had high values
# SETUP_CONDITIONS: 30 µM
Out of some 67,000 compounds screened, about 300 (0.45%) showed an effect of 50% or more. Only a selection was taken, and strong results are over-represented in it overall.
Numeric answer only, unit % assumed.

>  <COMPOUND>
OCC1(Cc2cccc(Cl)c2)CCCN(c2ncccn2)C1 (stereo not given)

>  <Percent Effect [%]>
20.3

$$$$
>  <COMPOUND>
CS(=O)(=O)N1CCO[C@@H]2CN(C(=O)C3CCOC3)CC[C@@H]2C1 (stereo not given in full)

>  <Percent Effect [%]>
-9.9

$$$$
>  <COMPOUND>
CN(C)C(=O)CN1C[C@@H]2CC[C@H](C1)N(C(=O)Cc1ccccc1Cl)C2

>  <Percent Effect [%]>
-15.3

$$$$
>  <COMPOUND>
Nc1nccc(N2CCCC(CO)(CCOc3ccccc3)C2)n1 (stereo not given)

>  <Percent Effect [%]>
-23.1

$$$$

QUERY: Tell me the measured Percent Effect of N#Cc1ccc(N2CCCC(CO)(CCOc3ccccc3)C2)nc1 (stereo not given) , please.
RESULT: 13.8

QUERY: Tell me the measured Percent Effect of "Cc1cccc(-n2nnnc2C(C)(C)Nc2ccccc2C)c1" , please.
RESULT: 71.2

QUERY: Tell me the measured Percent Effect of "O=C(NCc1ccco1)[C@H]1C[C@H]2OCC[C@H]2N(S(=O)(=O)C2CC2)C1" , please.
RESULT: -7.99

QUERY: Tell me the measured Percent Effect of "Cc1noc(C)c1CN1C(=O)[C@H]2CC[C@@H]1CN(Cc1nccs1)C2" , please.
RESULT: -22.4

QUERY: Tell me the measured Percent Effect of CC(NC(=O)N1CCC(CO)CC1)c1csc2ccccc12 (stereo not given) , please.
RESULT: 53

QUERY: Tell me the measured Percent Effect of "Cc1nc(COC[C@@]23CCC[C@@H]2CN(CC2CCOCC2)C3)cs1" , please.
RESULT: -23.1

QUERY: Tell me the measured Percent Effect of "Cn1cc(CN2CCO[C@@H]3CN(C4CCCC4)C[C@@H]3C2)cn1" , please.
RESULT: -3.52

QUERY: Tell me the measured Percent Effect of "Cc1noc([C@@H]2C[C@H]3OCC[C@H]3N(S(C)(=O)=O)C2)n1" , please.
RESULT: -22.1

QUERY: Tell me the measured Percent Effect of N#Cc1cccnc1N1CCCC(CO)(Cc2cccc(Cl)c2)C1 (stereo not given) , please.
RESULT: 96.8

QUERY: Tell me the measured Percent Effect of "CC(=O)N1CCC(c2cc(C(F)(F)F)nc3nccn23)CC1" , please.
RESULT: 57.5

====

# EXPERIMENTAL_SYSTEM: Polyketide synthase Pks13 (Mycobacterium tuberculosis (strain ATCC 25618 / H37Rv)) (UniProt I6X8D2)
# EXPERIMENT_SUMMARY: Mycobacterium tuberculosis Polyketide synthase 13 Thioesterase (PKS13)
# Assay type: functional
# Design: scale not given: in the data most compounds retested in dose-response had high values
# SETUP_CONDITIONS: 30 µM
The campaign covered roughly 67,000 compounds. About 300 (0.45%) showed an effect of 50% or more. The sample as a whole holds a higher share of strong results than the screen did.
ATTRIBUTE_MEASURED: Percent Effect (%)
Numeric answer only, unit % assumed.

In the examples that follow, each entry is paired with its recorded Percent Effect.
>  <COMPOUND>
NC(=O)c1ccccc1-n1cc(-c2cccc(C(=O)O)c2)cn1

>  <Percent Effect, %>
61.5

$$$$
>  <COMPOUND>
N#Cc1cc2c(=O)n(CC(O)C(F)(F)F)ccc2[nH]c1=O (stereo not drawn)

>  <Percent Effect, %>
-25.1

$$$$
>  <COMPOUND>
CC(C)N1CCO[C@H]2CN(Cc3cc[nH]n3)C[C@H]21

>  <Percent Effect, %>
-16.1

$$$$
>  <COMPOUND>
Nc1cc(C(=O)NCC2CCN(Cc3ccncc3F)C2)ccn1 (stereo not drawn)

>  <Percent Effect, %>
141

$$$$
>  <COMPOUND>
O=C(C1CC1)N1CCN2C[C@@H](CO)[C@H](c3ccccc3)[C@H]2C1

>  <Percent Effect, %>
2.09

$$$$

QUERY: Tell me the measured Percent Effect of O=C(OCC1CCN(c2ccccc2)C1)c1cscn1 (stereo not drawn) , please.
RESULT: 62.9

QUERY: Tell me the measured Percent Effect of "Cc1cc(C)n(CCN(C)c2ccc(-c3nc(C4CC4)no3)cn2)n1" , please.
RESULT: 0.156

QUERY: Tell me the measured Percent Effect of "Cc1noc(C)c1CN1C[C@@H]2CN(C(=O)c3cnccn3)C[C@@H]2C1" , please.
RESULT: -42.1
